System: Aromatase (Homo sapiens, UniProt P11511) | Read-out: pIC50
Sequence (P11511 whole entry): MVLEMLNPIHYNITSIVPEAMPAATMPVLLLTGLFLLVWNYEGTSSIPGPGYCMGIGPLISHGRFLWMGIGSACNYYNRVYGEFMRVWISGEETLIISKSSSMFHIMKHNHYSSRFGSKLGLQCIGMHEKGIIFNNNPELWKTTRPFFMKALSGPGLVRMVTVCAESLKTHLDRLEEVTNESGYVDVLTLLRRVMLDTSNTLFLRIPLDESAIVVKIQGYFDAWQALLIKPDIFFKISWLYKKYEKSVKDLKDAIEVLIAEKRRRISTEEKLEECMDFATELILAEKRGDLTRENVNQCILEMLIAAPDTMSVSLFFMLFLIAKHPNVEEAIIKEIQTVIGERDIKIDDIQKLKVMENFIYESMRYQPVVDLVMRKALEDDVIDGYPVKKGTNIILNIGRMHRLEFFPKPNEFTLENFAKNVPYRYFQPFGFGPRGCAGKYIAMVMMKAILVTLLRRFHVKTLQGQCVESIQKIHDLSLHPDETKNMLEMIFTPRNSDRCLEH
Formally, pIC50 is defined as -log10 of the concentration c, with c in mol/L.

Ask: Look up pIC50 with Aromatase (Homo sapiens, UniProt P11511) for this compound: `COc1ccc([C@@H]2[C@H]3C[C@H]4[C@@H]5CC[C@H]6CC(=O)CC[C@]6(C)[C@H]5CC[C@]4(C)C3=NN2c2ccccc2)cc1`
Reply: 5.38

Ask: Look up pIC50 with Aromatase (Homo sapiens, UniProt P11511) for this compound: `CCCCCCCC(=O)O[C@H]1C[C@@H]2[C@H](CC[C@]3(C)C(=O)CC[C@@H]23)[C@@]2(C)CCC(=O)C=C12`
Reply: 6.82

Ask: Look up pIC50 with Aromatase (Homo sapiens, UniProt P11511) for this compound: `CCCCCC(=O)O[C@H]1C[C@@H]2[C@H](CC[C@]3(C)C(=O)CC[C@@H]23)[C@@]2(C)CCC(=O)C=C12`
Reply: 7.06

Ask: Look up pIC50 with Aromatase (Homo sapiens, UniProt P11511) for this compound: `C[C@]12C[C@@H](Br)C(=O)C=C1CC[C@@H]1[C@@H]2CC[C@]2(C)C(=O)CC[C@@H]12`
Reply: 5.66

Ask: Look up pIC50 with Aromatase (Homo sapiens, UniProt P11511) for this compound: `CN1N=C2[C@H](C[C@H]3[C@@H]4CC[C@H]5C[C@@H](OC(=O)C(F)(F)F)CC[C@]5(C)[C@H]4CC[C@]23C)[C@H]1c1ccccc1`
Reply: 5.24

Ask: Look up pIC50 with Aromatase (Homo sapiens, UniProt P11511) for this compound: `CCOC1=C[C@@H]2[C@H](CC[C@]3(C)C(=O)CC[C@@H]23)[C@@]2(C)CCC(=O)C=C12`
Reply: 6.12

Ask: Look up pIC50 with Aromatase (Homo sapiens, UniProt P11511) for this compound: `C[C@]12C[C@@H](Cl)C(=O)C=C1CC[C@@H]1[C@@H]2CC[C@]2(C)C(=O)CC[C@@H]12`
Reply: 5.85
